Source of measurements: PubChem BioAssay (NCI)

# System: MDA-MB-231 breast
# ASSAY_NOTES: NCI tumour cell line growth inhibition, 48 h
EXPERIMENTAL_ENDPOINT: TGI (µM)
Numbers only, in µM.

Study these solved cases before continuing.
[
  {
    "COMPOUND": "O=C1c2cccc(NCCN=Cc3cc([N+](=O)[O-])ccc3O)c2C(=O)c2c(NCCN=Cc3cc([N+](=O)[O-])ccc3O)cccc21",
    "UNITS_SYMBOL": "µM",
    "MEASURED": 71.7
  },
  {
    "COMPOUND": "CN1CCN(CCOc2ccc(-c3cnc4c(-c5ccc(C(F)(F)F)cc5)cnn4c3)cc2)CC1",
    "UNITS_SYMBOL": "µM",
    "MEASURED": 2.95
  }
]

Value wanted: TGI (MDA-MB-231 breast) of entry COC(=O)[C@@]12OC[C@]34[C@H]([C@@H](O)[C@@H]1O)[C@@]1(C)[C@H](O)C(=O)C=C(C)[C@@H]1C[C@H]3OC(=O)C(OC(C)=O)[C@@H]24 (some centres not stated)
0.366
